Data provenance: patent US7524853B2

# SUBJECT OF TEST: 17β-hydroxysteroid dehydrogenase type 2 (17β-HSD type 2) (Homo sapiens, UniProt P37059)
# Construct: expressed in transfected cells; host or cells: MCF-7
# Sequence (P37059 whole entry): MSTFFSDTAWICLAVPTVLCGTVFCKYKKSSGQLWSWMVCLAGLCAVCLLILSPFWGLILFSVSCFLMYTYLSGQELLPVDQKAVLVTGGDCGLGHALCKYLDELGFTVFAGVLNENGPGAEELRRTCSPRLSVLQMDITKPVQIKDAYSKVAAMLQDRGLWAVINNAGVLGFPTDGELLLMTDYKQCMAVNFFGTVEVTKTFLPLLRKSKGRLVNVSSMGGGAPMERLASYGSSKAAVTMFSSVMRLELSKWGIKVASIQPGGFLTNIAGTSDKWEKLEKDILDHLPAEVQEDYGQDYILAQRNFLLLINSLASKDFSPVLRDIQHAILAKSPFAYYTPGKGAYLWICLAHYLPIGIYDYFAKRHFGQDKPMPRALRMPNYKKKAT
# EXPERIMENT: Inhibition of 17β-HSD type 2 in MCF-7 cells stably expressing the isoenzyme (tritium labeled estradiol conversion, HPLC)
# Assay type: cell-based
# CONDITION SET: MCF7; 1 μM test compound; MCF-7 cells expressing 17β-HSD type 2; 2 nM tritium labeled estradiol; read-out: % Inhibition HSD2 1 μM
Listed compounds paired with reported inhibition at 1 µM
All answers are understood in %, so give the number only.

COMPOUND	UNIT OF MEASUREMENT	RECORDED NUMBER
CCOC(=O)C1=Cc2sc3nc(-c4ccc(OC)cc4)n(Cc4ccccc4)c(=O)c3c2CC1 [No. 15]	%	-5.5
COc1cc(-c2nc3sc4c(O)cccc4c3c(=O)n2CC2CCCO2)c(Br)c(OC)c1OC (centres unmarked) [No. 133]	%	6.8
COc1cc(-c2nc3sc4c(O)cccc4c3c(=O)n2Cc2ccccc2)c(Br)c(OC)c1OC [No. 49]	%	20.1
COc1cc(-c2nc3sc4c(OC(C)=O)cccc4c3c(=O)n2Cc2ccccc2)cc(OC)c1OC [No. 54]	%	17
COc1cc(-c2nc3sc4c(Cl)c(C=O)ccc4c3c(=O)n2Cc2ccccc2)c(Cl)c(OC)c1OC [No. 150]	%	6.4
CCCc1nc2sc3c(c2c(=O)n1Cc1ccco1)CCCC3=O [No. 102]	%	13.6
O=C(OCCn1c(-c2cccs2)nc2sc3c(c2c1=O)CCCC3=O)c1cccs1 [No. 70]	%	13.1
CCC(C)Cn1c(-c2cc(OC)c(OC)c(OC)c2Cl)nc2sc3c(O)cccc3c2c1=O (centres unmarked) [No. 143]	%	4.5
COCc1nc2sc3c(c2c(=O)n1Cc1ccccc1)CCC(C=O)=C3Cl [No. 34]	%	-1.5
COc1cc(-c2nc3sc4c(O)cccc4c3c(=O)n2Cc2ccc(Br)o2)cc(OC)c1OC [No. 122]	%	15.4

Which measured inhibition at 1 µM value corresponds to COCCn1c(-c2cc(OC)c(OC)c(OC)c2Br)nc2sc3c(O)cccc3c2c1=O [No. 112] ?
14.6

Likewise for COc1cc(-c2nc3sc4c(c3c(=O)n2Cc2ccccc2)CCC(Cl)C4=O)c(Cl)c(OC)c1OC (centres unmarked) [No. 123] ?
24.6
